Values from patent US20220033406A1

Biological target: Recombinant full-length HIV-1 Reverse Transcriptase (HIVrt) (Human immunodeficiency virus type 1 group M subtype B)
Construct: Recombinant full-length HIV-1 Reverse Transcriptase (HIVrt)
Assay: Inhibition of HIV reverse transcriptase (RdDp assay)
Details: 1 nM HIVrt, 30° C., 40 min, 3H-TTP incorporation; Table 3 triphosphates
IC50 vs 400 nM: less than gives t; not less than gives f.

Here are 4 compounds together with their reported answers.
Query :: In plain terms, does C=C1[C@@H](n2ccc3c(N)ncnc32)C[C@H](O)[C@@]1(F)COP(=O)(O)OP(=O)(O)OP(=O)(O)O [Example 27] come in under 400 nM for IC50?
Result :: t

Query :: Then what about the compound C=C1[C@@H](n2cc(C)c(=O)[nH]c2=O)C[C@H](O)[C@@]1(CF)COP(=O)(O)OP(=O)(O)OP(=O)(O)O [Example 30] ?
Result :: f

Query :: Then what about the compound C=C1[C@@H](n2cnc3c(N)ncnc32)C[C@H](O)[C@@]1(F)COP(=O)(O)OP(=O)(O)OP(=O)(O)O [Example 26] ?
Result :: t

Query :: Then what about the compound C=C1[C@@H](n2cnc3c(N)ncnc32)C[C@H](O)[C@@]1(C#N)COP(=O)(O)OP(=O)(O)OP(=O)(O)O [Example 34] ?
Result :: f

Could you now look at the following compound, please?
Query :: In plain terms, does C=C1[C@@H](n2cc(C)c(=O)[nH]c2=O)C[C@H](O)[C@@]1(F)COP(=O)(O)OP(=O)(O)OP(=O)(O)O [Example 24] come in under 400 nM for IC50?
Result :: t

---

Molecular target: Recombinant full-length HIV-1 Reverse Transcriptase (HIVrt) (Human immunodeficiency virus type 1 group M subtype B)
Construct: Recombinant full-length HIV-1 Reverse Transcriptase (HIVrt)
Test: Inhibition of HIV reverse transcriptase (RdDp assay)
Conditions: 1 nM HIVrt, 30° C., 40 min, 3H-TTP incorporation; Table 3 triphosphates
IC50 vs 300 nM: less than gives rule met; not less than gives rule not met.

Query :: In plain terms, does C=C1[C@@H](n2cnc3c(=O)[nH]c(N)nc32)C[C@H](O)[C@@]1(CF)COP(=O)(O)OP(=O)(O)OP(=O)(O)O come in under 300 nM for IC50?
Result :: rule not met

Query :: Then what about the compound C=C1[C@@H](n2cc(C)c(=O)[nH]c2=O)C[C@H](O)[C@@]1(C#N)COP(=O)(O)OP(=O)(O)OP(=O)(O)O ?
Result :: rule not met

---
Query :: In plain terms, does C=C1[C@@H](n2ccc(N)nc2=O)C[C@H](O)[C@@]1(CF)COP(=O)(O)OP(=O)(O)OP(=O)(O)O come in under 300 nM for IC50?
Result :: rule not met

Query :: Then what about the compound C=C1[C@@H](n2cnc3c(=O)[nH]c(N)nc32)C[C@H](O)[C@@]1(F)COP(=O)(O)OP(=O)(O)OP(=O)(O)O ?
Result :: rule met

Query :: Then what about the compound C=C1[C@@H](n2cnc3c(N)ncnc32)C[C@H](O)[C@@]1(CCl)COP(=O)(O)OP(=O)(O)OP(=O)(O)O ?
Result :: rule not met

Query :: Then what about the compound C=C1[C@@H](n2cnc3c(=O)[nH]c(N)nc32)C[C@H](O)[C@@]1(C#N)COP(=O)(O)OP(=O)(O)OP(=O)(O)O ?
Result :: rule met

Query :: Then what about the compound C=C1[C@H](COP(=O)(O)OP(=O)(O)OP(=O)(O)O)[C@@H](O)C[C@@H]1n1ccc2c(=O)[nH]c(N)nc21 ?
Result :: rule not met

Query :: Then what about the compound C=C1[C@@H](n2ccc(N)nc2=O)C[C@H](O)[C@@]1(C#N)COP(=O)(O)OP(=O)(O)OP(=O)(O)O ?
Result :: rule met

Query :: Then what about the compound C=C[C@]1(COP(=O)(O)OP(=O)(O)OP(=O)(O)O)C(=C)[C@@H](n2cnc3c(N)ncnc32)C[C@@H]1O ?
Result :: rule not met

Query :: Then what about the compound C#C[C@]1(COP(=O)(O)OP(=O)(O)OP(=O)(O)O)C(=C)[C@@H](n2cnc3c(N)ncnc32)C[C@@H]1O ?
Result :: rule met

Query :: Then what about the compound C=C1[C@H](COP(=O)(O)OP(=O)(O)OP(=O)(O)O)[C@@H](O)C[C@@H]1n1ccc2c(N)ncnc21 ?
Result :: rule met
